# credit: the kinase profiling compilation of Christmann-Franck et al. (2016)

- TARGET OR TEST SYSTEM: PIM2 (human) (UniProt Q9P1W9)
- Sequence (Q9P1W9 whole entry, looked up): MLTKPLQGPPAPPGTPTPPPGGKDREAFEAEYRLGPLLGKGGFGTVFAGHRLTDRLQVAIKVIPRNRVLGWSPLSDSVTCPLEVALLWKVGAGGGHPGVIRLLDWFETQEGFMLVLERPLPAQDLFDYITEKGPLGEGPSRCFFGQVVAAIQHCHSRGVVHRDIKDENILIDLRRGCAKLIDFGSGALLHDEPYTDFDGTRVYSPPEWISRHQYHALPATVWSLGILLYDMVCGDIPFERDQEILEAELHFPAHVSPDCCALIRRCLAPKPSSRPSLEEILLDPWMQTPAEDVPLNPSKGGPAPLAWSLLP
- MEASUREMENT DESCRIPTION: radiometric filter-binding kinase assay
- CONDITION CONTEXT: compound 10.0 µM
OBSERVED PROPERTY: residual activity (%)
# unit: % | format: bare number

response.value for Cc1nc(-c2ccc(OCC(C)C)c(C#N)c2)sc1C(=O)O (field: residual activity) = 88

response.value for Cc1ccc(=O)n(-c2ccccc2)c1 (field: residual activity) = 96

response.value for NCC(=O)Nc1ccc(-n2nc(C(F)(F)F)cc2-c2ccc3c(ccc4ccccc43)c2)cc1 (field: residual activity) = 98

response.value for CCCC(CCC)C(=O)O (field: residual activity) = 104

response.value for NC(=O)c1ccc(-c2ccc(Oc3cncc4sc(-c5nn[nH]n5)cc34)cc2)cc1 (field: residual activity) = 14

response.value for CCNc1nc(Nc2cc(F)c(C(=O)N3CCOCC3)cc2OC)ncc1C(F)(F)F (field: residual activity) = 93

response.value for CN1C(=O)[C@@H](Cc2c[nH]c3ccccc23)NC1=S (field: residual activity) = 105

response.value for O=C(N[C@@H](COc1ccc2[nH]c(=O)[nH]c2c1)c1ccccc1)c1cccn(Cc2ccc(F)c(F)c2)c1=O (field: residual activity) = 85

response.value for O=c1c(O)c(-c2ccc(O)c(O)c2)oc2cc(O)c(O)c(O)c12 (field: residual activity) = 11

response.value for CCCCCc1ccc(/C=C/[C@H](O)[C@@H](CO)NC)cc1 (field: residual activity) = 97

response.value for Oc1ccc(/C=C/c2cc(O)cc(O)c2)cc1 (field: residual activity) = 37

====

- TARGET OR TEST SYSTEM: PIM2 (human) (UniProt Q9P1W9)
- MEASUREMENT DESCRIPTION: radiometric filter-binding kinase assay
- CONDITION CONTEXT: compound 0.1 µM
Recorded residual activity, one value per entry.
# unit: % | format: bare number

CCc1cncnc1N1CCN(Cc2nc3cc(C(F)(F)F)ccc3[nH]2)CC1 = 90
COc1ccc2c(c1)c1c3c(c4c5ccccc5n(C)c4c1n2CC(O)CN(C)C)C(=O)NC3=O (centres undefined) = 38
CN1CCN(CCOc2cc(OC3CCOCC3)c3c(Nc4c(Cl)ccc5c4OCO5)ncnc3c2)CC1 = 105
c1ccc2c(-c3cnn4cc(-c5ccc(N6CCNCC6)cc5)cnc34)ccnc2c1 = 98
NC1(c2ccc(-c3nc4ccn5c(=O)[nH]nc5c4cc3-c3ccccc3)cc2)CCC1 = 86

response.value for CCCCCc1ccc(/C=C/[C@H](O)[C@@H](CO)NC)cc1 (field: residual activity) = 103

response.value for COc1cc(O)c2c(c1)/C=C/C[C@H](O)[C@H](O)C(=O)/C=C\C[C@H](C)OC2=O (field: residual activity) = 91

response.value for NC(=O)Nc1ccc2c(c1)/C(=C/c1cc(-c3cccnc3)c[nH]1)C(=O)N2 (field: residual activity) = 76

response.value for NC(=O)c1cc(-c2ccnc(NC3CCCCC3)c2)nc(N2CCNCC2)c1 (field: residual activity) = 99

response.value for NC(=O)c1cc2c(-c3cccc(-c4ccccc4)c3)cnc(N)c2s1 (field: residual activity) = 98

response.value for CC1=C(CO)C(=O)O[C@@H]([C@@H](C)[C@H]2CC[C@H]3[C@@H]4C[C@H]5O[C@]56[C@@H](O)C=CC(=O)[C@]6(C)C4CC[C@]23C)C1 (some centres undefined) (field: residual activity) = 96

response.value for C/C(=C1/C(=O)Nc2ccc(NC(N)=O)cc21)c1ccc[nH]1 (field: residual activity) = 65

response.value for O=C(O)c1ccc(-c2c[nH]c3ncc(-c4ccccc4)cc23)cc1C1CCCC1 (field: residual activity) = 104

response.value for Cc1ccc(Sc2cnc(Nc3cccc(Br)n3)s2)cc1C(=O)N1CCN(C(=O)CN)CC1 (field: residual activity) = 94

response.value for O=C(N[C@@H](COc1ccc2[nH]c(=O)[nH]c2c1)c1ccccc1)c1cccn(Cc2ccc(F)c(F)c2)c1=O (field: residual activity) = 107

response.value for CNC(=O)C1[C@H]2O[C@@](C)([C@@H]1N)n1c3ccccc3c3c4c(c5c6ccccc6n2c5c31)C(=O)NC4 (some centres undefined) (field: residual activity) = 30

response.value for O=C(Nc1nc2cc(C(F)(F)F)cc(NC3CC3)n2n1)c1cccnc1 (field: residual activity) = 109

response.value for Cc1cccc(-c2nn(C(=S)Nc3ccccc3)cc2-c2ccnc3ccccc23)n1 (field: residual activity) = 97

response.value for Cc1ccc(-c2ccc3c(ccc4sc5c(c43)NC[C@@H](C)NC5=O)n2)cn1 (field: residual activity) = 103

====

- TARGET OR TEST SYSTEM: TEK (human)
- MEASUREMENT DESCRIPTION: radiometric filter-binding kinase assay
- CONDITION CONTEXT: compound 0.01 µM
Recorded residual activity, one value per entry.
Answer as a quantity: numeral, then unit.

Please review the following examples before continuing.
CNC(=O)C1[C@H]2O[C@@](C)([C@@H]1N)n1c3ccccc3c3c4c(c5c6ccccc6n2c5c31)C(=O)NC4 (some centres undefined) = 59%
O=C(Nc1nc2cc(C(F)(F)F)cc(NC3CC3)n2n1)c1cccnc1 = 94%
COc1cc(O)c2c(c1)[C@H]1OC1C[C@H](O)[C@H](O)C(=O)/C=C\C[C@H](C)OC2=O (some centres undefined) = 122%

Case COc1ccc(N(C(=O)Nc2c(C)cccc2C)c2cc(Nc3ccc(N4CCN(C)CC4)cc3)ncn2)c(OC)c1 , TEK (human), residual activity recorded as 116%

====

Recorded residual activity, one value per entry.
- TARGET OR TEST SYSTEM: EPHA4 (human)
- MEASUREMENT DESCRIPTION: radiometric filter-binding kinase assay
- CONDITION CONTEXT: compound 1.0 µM
Answer as a quantity: numeral, then unit.

response.value for COc1cc2ncn(-c3cc(OCc4ccccc4S(C)(=O)=O)c(C#N)s3)c2cc1OC (field: residual activity) = 57%

response.value for O=c1c(O)c(-c2ccc(O)c(O)c2)oc2cc(O)c(O)c(O)c12 (field: residual activity) = 117%

response.value for C=C1C(=O)OC2C1CC/C(C)=C/CCC1(C)OC21 (centres undefined) (field: residual activity) = 110%

response.value for CN(C)C/C=C/C(=O)Nc1cccc(C(=O)Nc2ccc(Nc3nccc(-c4cccnc4)n3)cc2)c1 (field: residual activity) = 105%

====

- TARGET OR TEST SYSTEM: UniProtKB P54753
- Sequence (P54753 whole entry, looked up): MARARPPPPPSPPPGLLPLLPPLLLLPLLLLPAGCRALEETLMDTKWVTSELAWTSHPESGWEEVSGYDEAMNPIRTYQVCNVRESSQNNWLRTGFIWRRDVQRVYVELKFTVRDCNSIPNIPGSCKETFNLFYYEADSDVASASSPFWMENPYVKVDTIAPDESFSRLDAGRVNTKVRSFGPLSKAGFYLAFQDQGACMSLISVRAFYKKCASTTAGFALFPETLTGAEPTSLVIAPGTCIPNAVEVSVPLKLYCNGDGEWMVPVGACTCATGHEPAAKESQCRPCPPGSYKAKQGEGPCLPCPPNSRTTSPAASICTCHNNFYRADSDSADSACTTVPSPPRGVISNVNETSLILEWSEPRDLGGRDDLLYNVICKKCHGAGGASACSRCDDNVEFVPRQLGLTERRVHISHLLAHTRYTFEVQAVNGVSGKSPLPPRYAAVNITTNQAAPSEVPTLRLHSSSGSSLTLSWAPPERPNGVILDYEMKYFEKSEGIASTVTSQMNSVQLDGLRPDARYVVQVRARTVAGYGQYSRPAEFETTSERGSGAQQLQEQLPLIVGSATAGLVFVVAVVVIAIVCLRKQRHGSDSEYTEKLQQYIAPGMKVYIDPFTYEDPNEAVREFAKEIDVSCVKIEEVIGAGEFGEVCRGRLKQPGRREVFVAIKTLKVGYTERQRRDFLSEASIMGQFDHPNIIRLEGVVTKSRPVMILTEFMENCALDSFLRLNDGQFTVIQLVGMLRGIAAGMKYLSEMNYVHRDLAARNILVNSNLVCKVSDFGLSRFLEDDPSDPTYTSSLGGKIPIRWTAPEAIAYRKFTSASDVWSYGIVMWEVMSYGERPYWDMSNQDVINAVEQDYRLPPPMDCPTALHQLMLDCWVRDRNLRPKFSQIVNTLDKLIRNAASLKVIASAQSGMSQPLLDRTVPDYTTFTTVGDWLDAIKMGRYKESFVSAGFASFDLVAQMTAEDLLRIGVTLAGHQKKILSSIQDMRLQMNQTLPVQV
- MEASUREMENT DESCRIPTION: radiometric filter-binding kinase assay
- CONDITION CONTEXT: compound 10.0 µM
Recorded residual activity, one value per entry.
# unit: % | format: bare number

Please review the following examples before continuing.
c1ccc2c(-c3cnn4cc(-c5ccc(N6CCNCC6)cc5)cnc34)ccnc2c1 = 48
Cc1ccc2c(c1)C(=O)[C@@]1(O)CCN(c3ccccc3)C1=N2 = 107
NC(=O)Nc1ccc2c(c1)/C(=C/c1cc(-c3cccnc3)c[nH]1)C(=O)N2 = 53

# context switch: different compound, same residual activity
Case CC(C)C[C@H](NC(=O)CNC(=O)c1cc(Cl)ccc1Cl)B1OC(=O)CC(CC(=O)O)(C(=O)O)O1 (stereo not given in full) , UniProtKB P54753, residual activity recorded as 62

====

- Test system: PRKAA1 or PRKAA2 (rat)
- MEASUREMENT DESCRIPTION: radiometric filter-binding kinase assay
- CONDITION CONTEXT: compound 0.1 µM; accession and sequence are those of the human protein
OBSERVED PROPERTY: residual activity (%)
# unit: % | format: bare number

NC(=O)c1cc(-c2ccnc(NC3CCCCC3)c2)nc(N2CCNCC2)c1 = 97
CCn1c(-c2nonc2N)nc2cncc(CNC3CCNCC3)c21 = 95

response.value for C/C(=C1/C(=O)Nc2ccc(NC(N)=O)cc21)c1ccc[nH]1 (field: residual activity) = 7

====

- TARGET OR TEST SYSTEM: MAPK8 (human)
- MEASUREMENT DESCRIPTION: radiometric filter-binding kinase assay
- CONDITION CONTEXT: compound 0.1 µM
Recorded residual activity, one value per entry.
# unit: % | format: bare number

CNc1nc(-c2ccc3c(N)n[nH]c3c2)cc(N2C[C@@H](C(=O)NC3CCCCC3)CC[C@H]2C)n1 = 108
COc1ccc(N(C(=O)Nc2c(C)cccc2C)c2cc(Nc3ccc(N4CCN(C)CC4)cc3)ncn2)c(OC)c1 = 107
O=C(NCCCNc1nc(Nc2cccc(CN3CCOCC3)c2)ncc1C1CC1)C1CCC1 = 93
CN1CCN(CCOc2cc(OC3CCOCC3)c3c(Nc4c(Cl)ccc5c4OCO5)ncnc3c2)CC1 = 97
O=C(N[C@@H](COc1ccc2[nH]c(=O)[nH]c2c1)c1ccccc1)c1cccn(Cc2ccc(F)c(F)c2)c1=O = 100

response.value for COc1cc(O)c2c(c1)/C=C/C[C@H](O)[C@H](O)C(=O)/C=C\C[C@H](C)OC2=O (field: residual activity) = 90

response.value for c1ccc2c(-c3cnn4cc(-c5ccc(N6CCNCC6)cc5)cnc34)ccnc2c1 (field: residual activity) = 89

response.value for O=C(O)c1ccc(-c2c[nH]c3ncc(-c4ccccc4)cc23)cc1C1CCCC1 (field: residual activity) = 81

response.value for CCn1c(-c2nonc2N)nc2cncc(CNC3CCNCC3)c21 (field: residual activity) = 112
